# ASSAY OVERVIEW: NCI Yeast Anticancer Drug Screen. Data for the rad18 strain (AID 177)
# CONDITION SUMMARY: S. cerevisiae rad18 mutant growth inhibition; at 1.2 µM; active compounds read high
# Procedure: Growth inhibition of yeast strains with defined genetic alterations is measured as a screen for potential anti-cancer activity. Selected strains with alterations in DNA damage repair or cell cycle control were exposed to compounds and growth inhibition was measured relative to vehicle treated controls. The strain used in this assay is rad18
About 79,000 compounds went through this panel and 15% of them were active in at least one assay; those are over-represented in the sample as a whole.
Would you mind telling me the reported growth inhibition of each entry?
Kindly answer with a numeric value in %, unit omitted.

Prompt: Could you share which growth inhibition value was measured for Nc1ccccc1CC(O)C(=O)O (stereo unspecified) ?
Response: 1

Prompt: Could you share which growth inhibition value was measured for COC(=O)CCNc1c2ccccc2nc2cccc([N+](=O)[O-])c12 ?
Response: 97

Prompt: Could you share which growth inhibition value was measured for OCC(Cn1cncn1)(c1ccc(F)cc1F)n1cncn1 (stereo unspecified) ?
Response: 41

Prompt: Could you share which growth inhibition value was measured for c1ccc2c(c1)Oc1cccc3cccc-2c13 ?
Response: 22

Prompt: Could you share which growth inhibition value was measured for O=c1c2ccccc2ncn1COCc1ccccc1 ?
Response: -3

Prompt: Could you share which growth inhibition value was measured for Cc1c(C(=O)C(=O)c2ccccc2)c(C)c(C(=O)C(=O)c2ccccc2)c(C)c1C(=O)C(=O)c1ccccc1 ?
Response: -3

Prompt: Could you share which growth inhibition value was measured for COc1ccc(-c2cn(-c3ccc(I)cc3)c3ncnc(N)c23)cc1 ?
Response: -5

Prompt: Could you share which growth inhibition value was measured for Cc1ccc(S(=O)(=O)Oc2cc(Cl)c(Cl)cc2Cl)cc1 ?
Response: -5

Prompt: Could you share which growth inhibition value was measured for CCCCN1C(=O)N(c2ccc(OCC)cc2)C2N(CCCC)C1C(C)(C)C2(C)C (stereo unspecified) ?
Response: -7

Prompt: Could you share which growth inhibition value was measured for CCC(C)COC(=O)c1ccc(N=Cc2ccc(C=Nc3ccc(C(=O)OCC(C)CC)cc3)cc2)cc1 (stereo unspecified) ?
Response: -1

Prompt: Could you share which growth inhibition value was measured for Cc1ccc(NC(=O)/C(Cl)=C(\Cl)C(=O)O)cc1C ?
Response: 0

---

Would you mind telling me the reported growth inhibition of each entry?
# ASSAY OVERVIEW: NCI Yeast Anticancer Drug Screen. Data for the mlh1 rad18 strain (AID 175)
# CONDITION SUMMARY: S. cerevisiae mlh1 rad18 strain growth inhibition; at 5.0 µM (retest, dose inferred, filed as 0.5); active compounds read high
# Description: Growth inhibition of yeast strains with defined genetic alterations is measured as a screen for potential anti-cancer activity. Selected strains with alterations in DNA damage repair or cell cycle control were exposed to compounds and growth inhibition was measured relative to vehicle treated controls. The strain used in this assay is mlh1 rad18
Compounds without any hit were thinned out: in the full panel of roughly 79,000, 15% have a hit.
Kindly answer with a numeric value in %, unit omitted.

Prompt: Could you share which growth inhibition value was measured for O=C1Nc2ccccc2/C1=C/COc1ccccc1 ?
Response: 20

Prompt: Could you share which growth inhibition value was measured for CC(C(=O)N1C(=O)N(C(=O)[C@H](C)C(O)c2ccccc2)[C@H](c2ccccc2)[C@H]1c1ccccc1)[C@@H](O)c1ccccc1 (stereo not given in full) ?
Response: 7

Prompt: Could you share which growth inhibition value was measured for c1ccc(-c2ccnc3c2ccc2c(-c4ccccc4)ccnc23)cc1 ?
Response: -32

Prompt: Could you share which growth inhibition value was measured for N/C(=N\OC(=O)NC(Cl)=C(Cl)Cl)c1cc(C(F)(F)F)cc(C(F)(F)F)c1 ?
Response: 42

Prompt: Could you share which growth inhibition value was measured for NC(=S)N/N=C\c1nccc2ccccc12 ?
Response: -135

Prompt: Could you share which growth inhibition value was measured for C(CCSC1=NCCN1)CSC1=NCCN1 (tested in a mixture with another compound) ?
Response: 77

Prompt: Could you share which growth inhibition value was measured for NNC(=O)CCc1ccc2ccc3ccccc3c2c1 ?
Response: -10

Prompt: Could you share which growth inhibition value was measured for CCCN(CCC)CC(O)c1cc(-c2ccc(Cl)cc2)nc2c(C)c(Cl)ccc12 (stereo not given) ?
Response: 27

Prompt: Could you share which growth inhibition value was measured for O=C1C=CC(=O)N1c1ccc2c(c1)Cc1cc(NC(=O)C(F)(F)F)ccc1-2 ?
Response: 91

Prompt: Could you share which growth inhibition value was measured for N#C/C(=C\c1cccc(OCc2ccccc2)c1)c1ccc([N+](=O)[O-])cc1 ?
Response: 50

---

# ASSAY OVERVIEW: NCI Yeast Anticancer Drug Screen. Data for the sgs1 strain (AID 173);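 further: 0% = growth of vehicle-only control cultures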
# CONDITION SUMMARY: S. cerevisiae sgs1 mutant, at 100.0 µM
About 79,000 compounds went through this panel and 15% of them were active in at least one assay; those are over-represented in the sample as a whole. The source made the active and inactive calls. No stated cut-off is given here; in the data, active means growth inhibition above about 70%; inactive means the rest.
Your answer must be one of the following: 1 for active, -1 for inactive

Prompt: Which result was noted for this molecule in the test: S=C(Nc1ccc(Cl)cc1)SC1CCCCC1
Response: 1

Prompt: Which result was noted for this molecule in the test: O=[N+]([O-])c1ccc2c(c1)C(N1CCN(CCO)CC1)Cc1ccc(F)cc1S2 (configuration not stated)
Response: 1

Prompt: Which result was noted for this molecule in the test: Cc1ccc(-c2ccc(Nc3c4ccccc4nc4ccccc34)cc2)cn1
Response: 1

Prompt: Which result was noted for this molecule in the test: Cc1ccc(S(=O)(=O)Oc2cc(Cl)c(Cl)cc2Cl)cc1
Response: -1

Prompt: Which result was noted for this molecule in the test: CC(C)[N+]([O-])(CCCNc1c2ccccc2nc2cccc([N+](=O)[O-])c12)C(C)C
Response: 1

Prompt: Which result was noted for this molecule in the test: CN1c2ccc(Cl)cc2C(=O)NC1c1ccc([N+](=O)[O-])s1 (configuration not stated)
Response: 1

Prompt: Which result was noted for this molecule in the test: COc1cc2c(c(OC)c1OC)-c1c(cc3c(c1OC)OCO3)CC(C)C(C)(O)C2OC(=O)c1ccccc1 (configuration not stated)
Response: -1

Prompt: Which result was noted for this molecule in the test: OC(COc1cccc2ccccc12)CN1CCOCC1 (configuration not stated)
Response: -1

Prompt: Which result was noted for this molecule in the test: COc1cc(/C=C2\CCc3ccccc3C2=O)cc(OC)c1OC
Response: 1

Prompt: Which result was noted for this molecule in the test: CC(C)NC(=O)OCc1c(COC(=O)NC(C)C)c(-c2ccc(Cl)c(Cl)c2)n2c1CCC2
Response: 1

Prompt: Which result was noted for this molecule in the test: O=C(Nc1ccccc1)C(=O)C(C(=O)c1ccccc1)C(c1ccccc1)c1ccccc1 (configuration not stated)
Response: -1

Prompt: Which result was noted for this molecule in the test: Cc1ccc(CSC(N)=Nc2ccccc2)cc1C
Response: 1

Prompt: Which result was noted for this molecule in the test: CCCCc1cc(O)ccc1O
Response: -1

Prompt: Which result was noted for this molecule in the test: c1ccc2c(c1)C(=NCCCN1CCCCCC1)c1cccn1-2
Response: 1

Prompt: Which result was noted for this molecule in the test: [O-][n+]1c2ccc(O)cc2nc2ccc(Cl)cc21
Response: -1

Prompt: Which result was noted for this molecule in the test: O=C1C=CC(=O)c2c(O)c(Nc3ccc(OC(F)(F)F)cc3)c(Cl)c(O)c21
Response: 1

Prompt: Which result was noted for this molecule in the test: COC1=CC(=O)C(C2(OC(C)C)OC(=O)C(Cl)=C2Cl)=CC1=O (configuration not stated)
Response: 1

Prompt: Which result was noted for this molecule in the test: N#C/C(=C\c1cccc(OCc2ccccc2)c1)c1ccc([N+](=O)[O-])cc1
Response: -1

Prompt: Which result was noted for this molecule in the test: C[Si](C)(C)CNC(=O)OCc1ccccc1
Response: -1

Prompt: Which result was noted for this molecule in the test: CN(C)CCOc1ccc2c(c1)C/C(=C/c1ncc([N+](=O)[O-])n1C)C2=O
Response: 1

Prompt: Which result was noted for this molecule in the test: COc1cc(C2c3cc4c(cc3OC(Nc3ccccc3)C2C)OCO4)cc(OC)c1O (configuration not stated)
Response: -1

Prompt: Which result was noted for this molecule in the test: O=C(O)c1ccccc1-c1ccccc1C(=O)Nc1ccc2c(c1)Cc1ccccc1-2
Response: 1

---

# ASSAY OVERVIEW: NCI Yeast Anticancer Drug Screen. Data for the bub3 strain (AID 167)
# CONDITION SUMMARY: S. cerevisiae bub3 mutant strain, at 100.0 µM, active compounds read high
This is part of a sample that, as a whole, favours compounds with a hit. Of some 79,000 tested, about 15% had one in any assay.
METRIC: growth inhibition (%)
Kindly answer with a numeric value in %, unit omitted.

Prompt: Could you share which growth inhibition value was measured for Cn1c2ccccc2c(=O)c2cc(NC(=O)CCCCC(=O)Nc3ccc4c(c3)c(=O)c3ccccc3n4C)ccc21 ?
Response: 19

Prompt: Could you share which growth inhibition value was measured for CCN(CC)CC(O)c1ccc2ccc3ccccc3c2c1 (stereo unspecified) ?
Response: 45

Prompt: Could you share which growth inhibition value was measured for N#CN1C2CCC1CC(=O)C2 ?
Response: 31

Prompt: Could you share which growth inhibition value was measured for CC(=O)Oc1ccc2c(c1)Cc1cc(N=C3C=CC(=O)O3)ccc1-2 ?
Response: 95

Prompt: Could you share which growth inhibition value was measured for COc1cc(C2c3cc4c(cc3OC(Nc3ccccc3)C2C)OCO4)cc(OC)c1O (stereo unspecified) ?
Response: 41

Prompt: Could you share which growth inhibition value was measured for O=C1C2C(C(=O)N1c1ccc(OCc3ccccc3)cc1)C1c3ccccc3C2C2CCCCN21 (stereo unspecified) ?
Response: 88
